Values were extracted from the supplement of paper PMC8728848.

target: GlcNAc(b1-4)Gal(b1-4)GlcNAc; assay: glycan array binding signal (z-score within array); higher = stronger binding; conditions: glycan notation: IUPAC condensed, linker removed
The entries come from a sample that favours the strongest signals as a whole.
Please respond with reported glycan array binding signal (z-score) for every item in the list.
Write no unit; give the number alone.

Problem: Tell me the measured glycan array binding signal (z-score) of SGC, Q9M345 (protein) QNLNFTYNGFHPPLTDISLQGLATVTPNGLLKLTNTSVQKTGHAFCTERIRFKDSQNGNVSSFSTTFVFAIHSQIPTLSGHGIAFVVAPTLGLPFALPSQYIGLFNISNNGNDTNHIFAVEFDTIQSSEFGDPNDNHVGIDLNGLRSANYSTAGYRDDHDKFQNLSLISRKRIQVWIDYDNRSHRIDVTVAPFDSDKPRKPLVSYVRDLSSILLEDMYVGFSSATGSVLSEHFLVGWSFRLNGEAPMLSLSKLPKLPRFEPRRIS , please.
Solution: -0.349

Problem: Report glycan array binding signal (z-score) for PpFlo2 (Pichia pastoris) (protein) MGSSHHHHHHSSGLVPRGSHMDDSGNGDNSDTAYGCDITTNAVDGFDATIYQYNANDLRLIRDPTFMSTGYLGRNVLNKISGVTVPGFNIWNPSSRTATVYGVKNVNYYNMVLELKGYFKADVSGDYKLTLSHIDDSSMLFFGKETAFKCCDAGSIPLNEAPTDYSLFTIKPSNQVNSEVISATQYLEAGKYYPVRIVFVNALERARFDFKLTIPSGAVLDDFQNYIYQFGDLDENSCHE please.
Solution: 0.414

Problem: Would you mind telling me what glycan array binding signal (z-score) value was observed for SBD-G4S3-Fc (protein) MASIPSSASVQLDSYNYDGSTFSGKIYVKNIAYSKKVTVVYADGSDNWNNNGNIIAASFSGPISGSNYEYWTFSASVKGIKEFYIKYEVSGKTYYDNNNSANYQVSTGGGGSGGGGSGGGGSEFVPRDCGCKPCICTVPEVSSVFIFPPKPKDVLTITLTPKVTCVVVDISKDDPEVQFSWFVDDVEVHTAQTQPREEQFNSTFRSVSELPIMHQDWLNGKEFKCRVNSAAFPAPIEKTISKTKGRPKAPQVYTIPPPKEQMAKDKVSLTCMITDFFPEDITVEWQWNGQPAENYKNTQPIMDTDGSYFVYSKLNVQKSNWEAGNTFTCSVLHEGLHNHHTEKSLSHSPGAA ?
Solution: -0.117

Problem: # lookup: glycan array binding signal (z-score) of CC1G-11630 (Coprinopsis cinerea), A8P462 (protein) MTTEAKIKLKAVVYWELVFDYDNSSNTGEITQSYTVKISQTSTRSTFASEVSTTTIDTLTKNNQEVDVGASYGAISANVSASWEHSEEVNNMLEKTTQTSTEDTYTVETEETRSYTIGPGGMLSLFQKHFSGPGMHVAFDVFTTDLELAKERTEIDIDVDVEAIRFVREIRVVYTDIMSEAPGDHVREINGKNPDINYGFNGKFVWLVPEQTRKTAQALTNVEFVSQAESDDRYWDLAAGAGGSNRYLIPVYDTNNKDKIYELALWRSDSYITHDKVKAAGWSGTTGDINSGRGGTYLNLVWKTRHAY
Solution: -0.152
